# target.or.test.system: T1, human IGF-1R(1-903)-Fc (human, UniProt P08069 31-933)
# T1 construct: also called hIGF-1R-Fc; SDWT; not shown: human IgG1 Fc, C-terminal tag
# T1 sequence (P08069 31-933): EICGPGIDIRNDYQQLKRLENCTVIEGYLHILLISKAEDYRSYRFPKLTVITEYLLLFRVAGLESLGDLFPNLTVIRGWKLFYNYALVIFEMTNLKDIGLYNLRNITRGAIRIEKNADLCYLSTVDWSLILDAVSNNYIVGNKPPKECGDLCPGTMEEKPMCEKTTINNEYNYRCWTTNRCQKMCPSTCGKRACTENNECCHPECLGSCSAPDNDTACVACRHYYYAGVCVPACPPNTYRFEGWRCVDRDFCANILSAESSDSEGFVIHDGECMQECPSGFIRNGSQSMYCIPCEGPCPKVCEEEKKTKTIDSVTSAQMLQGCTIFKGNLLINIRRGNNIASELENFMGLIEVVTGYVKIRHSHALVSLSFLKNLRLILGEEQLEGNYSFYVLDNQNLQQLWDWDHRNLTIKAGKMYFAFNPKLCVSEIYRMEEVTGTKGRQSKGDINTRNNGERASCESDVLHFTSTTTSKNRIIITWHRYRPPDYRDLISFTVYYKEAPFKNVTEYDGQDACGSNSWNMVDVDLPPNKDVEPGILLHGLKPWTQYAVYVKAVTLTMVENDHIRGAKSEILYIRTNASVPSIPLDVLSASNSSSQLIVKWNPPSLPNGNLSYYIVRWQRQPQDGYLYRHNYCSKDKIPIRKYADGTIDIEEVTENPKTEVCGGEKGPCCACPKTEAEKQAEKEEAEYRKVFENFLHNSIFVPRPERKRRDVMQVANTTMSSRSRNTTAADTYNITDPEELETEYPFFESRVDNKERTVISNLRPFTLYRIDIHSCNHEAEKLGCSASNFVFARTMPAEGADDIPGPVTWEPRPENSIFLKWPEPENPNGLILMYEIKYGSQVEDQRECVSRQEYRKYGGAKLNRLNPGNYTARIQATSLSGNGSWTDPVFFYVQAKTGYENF
# test.summary: biolayer interferometry (Octet), IGF-1R Fc on Protein A sensors, scFv culture supernatant
# Set-up: unit not given here
Mark t only for Kd (1/sec), off-rate as tabulated (XWU092 = 1.00) values smaller than 0.8; exact matches and larger values are f.

{"columns": ["binder", "discrete.label"],
 "data": [
  ["MJF022, C06 (VL/GS3/VH) scFv with VL V15R (scFv, Kabat positions) scFv: DIQMTQSPLSLSASRGDRVTITCQASRDIRNYLNWYQQKPGKAPKLLIYDASSLQTGVPSRFGGSGSGTDFSFTIGSLQPEDIATYYCQQFDSLPHTFGQGTKLEIKGGGGSGGGGSGGGGSEVQLLESGGGLVQPGGSLRLSCAASGFTFSIYRMQWVRQAPGKGLEWVSGISPSGGTTWYADSVKGRFTISRDNSKNTLYLQMNSLRAEDTAVYYCARWSGGSGYAFDIWGQGTMVTVSSDDDKSFLEQKLISEEDLNSAVDHHHHHH", "t"],
  ["MJF025, C06 (VL/GS3/VH) scFv with VL V15P (scFv, Kabat positions) scFv: DIQMTQSPLSLSASPGDRVTITCQASRDIRNYLNWYQQKPGKAPKLLIYDASSLQTGVPSRFGGSGSGTDFSFTIGSLQPEDIATYYCQQFDSLPHTFGQGTKLEIKGGGGSGGGGSGGGGSEVQLLESGGGLVQPGGSLRLSCAASGFTFSIYRMQWVRQAPGKGLEWVSGISPSGGTTWYADSVKGRFTISRDNSKNTLYLQMNSLRAEDTAVYYCARWSGGSGYAFDIWGQGTMVTVSSDDDKSFLEQKLISEEDLNSAVDHHHHHH", "f"],
  ["MJF051, C06 (VL/GS3/VH) scFv with VL S77G, I83Q (scFv, Kabat positions) scFv: DIQMTQSPLSLSASVGDRVTITCQASRDIRNYLNWYQQKPGKAPKLLIYDASSLQTGVPSRFGGSGSGTDFSFTIGGLQPEDQATYYCQQFDSLPHTFGQGTKLEIKGGGGSGGGGSGGGGSEVQLLESGGGLVQPGGSLRLSCAASGFTFSIYRMQWVRQAPGKGLEWVSGISPSGGTTWYADSVKGRFTISRDNSKNTLYLQMNSLRAEDTAVYYCARWSGGSGYAFDIWGQGTMVTVSSDDDKSFLEQKLISEEDLNSAVDHHHHHH", "f"],
  ["MJF039, C06 (VL/GS3/VH) scFv with VL T20R, R30N, G63S, S72N (scFv, Kabat positions) scFv: DIQMTQSPLSLSASVGDRVRITCQASRDINNYLNWYQQKPGKAPKLLIYDASSLQTGVPSRFSGSGSGTDFNFTIGSLQPEDIATYYCQQFDSLPHTFGQGTKLEIKGGGGSGGGGSGGGGSEVQLLESGGGLVQPGGSLRLSCAASGFTFSIYRMQWVRQAPGKGLEWVSGISPSGGTTWYADSVKGRFTISRDNSKNTLYLQMNSLRAEDTAVYYCARWSGGSGYAFDIWGQGTMVTVSSDDDKSFLEQKLISEEDLNSAVDHHHHHH", "t"]
]}
